B1: Azoarcus group I ribozyme (parent)
chain: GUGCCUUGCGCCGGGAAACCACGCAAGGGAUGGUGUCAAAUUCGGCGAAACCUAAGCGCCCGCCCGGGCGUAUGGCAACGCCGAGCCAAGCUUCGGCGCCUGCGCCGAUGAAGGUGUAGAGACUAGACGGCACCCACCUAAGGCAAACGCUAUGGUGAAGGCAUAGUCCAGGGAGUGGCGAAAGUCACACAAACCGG

- Variants of: B1
- Assay Notes: reverse-splicing fitness (ratio to wild type); higher = more active; in vitro selection; Mg2+ level not given
So I've got a bunch of variants here, and I need their reverse-splicing fitness values.
One number for each entry.

Examples from the recorded data:
Ask: What value of measured reverse-splicing fitness is listed for C82G A120C A145U C150G C169A U176C ?
Result: 0.0102

Ask: I am curious: what reverse-splicing fitness value has been reported for C82A A111U A120G A145C C169A U176G ?
Result: 0.0048

Ask: What value of reverse-splicing fitness has been reported for the following variant? C82U A120U A145G C150U C169U U176A
Result: 0.00396

Could I get reverse-splicing fitness for every one of these entries?
1. C82U A120U A145C C150A C169U U176C
2. C82G A145U C150U C169A U176C

Result:
1. 0.00195
2. 0.00851

Report reverse-splicing fitness for every entry below.
1. C82G A120C A145G U176A
2. C82U A120C A145U C150U C169U U176G
3. C82U A111C A145G C150G C169A U176G
4. C82A A111U A145G C169A U176A
5. C82G C150G C169A

Result:
0.0722
0.00397
0.0072
0.0221
0.00919

For each of the variants below, note its reverse-splicing fitness.
1. C82A A111G A120U A145G C150G C169A U176A
2. A120U A145C C150A U176G

Result:
[0.0108, 0.0538]

Below is a list of variants. For each, state its recorded reverse-splicing fitness.
1. A120C
2. C82U A111C A120C C150U C169U U176G

Result:
0.9
0.00584

For every listed record, write down its reverse-splicing fitness.
1. A111G A120U A145C C169A U176G
2. C82G A111U A120G C169U
3. C82U A111G A120U C169G U176C
4. C82U A111C A120C A145G C169G U176C

Result:
[0.0014, 0.0106, 0.00265, 0.0254]

Your task in this section: give reverse-splicing fitness for each listed record.
1. C82A A111C A145G C150U
2. C82G A111U A120C C150A U176C
3. A111G A120C A145C C169U
4. C82G A111C C150G C169A U176A
5. C82U A111G A120C A145C C150A C169A U176G
6. C82U A111C A120G A145C C150U C169G U176C
7. C82U A111C A120C A145G C150A C169U U176G

Result:
1: 0.174; 2: 0.0231; 3: 0.223; 4: 0.00955; 5: 0.00444; 6: 0.0105; 7: 0.00639

I need reverse-splicing fitness for every entry listed below, if you could help.
1. C82U A111G C169A
2. C82G A111U A120G A145G C150A C169U U176A
3. C82U A111G A120C A145U C150G C169U
4. A111G A120U A145G C169A U176C
5. C82A A111U A145C C150A C169U
6. C82A A111U A120U C150G C169A U176G
7. C82U A120U A145U C150U U176C

Result:
0.0072
0.0204
0.00776
0.00372
0.011
0.00311
0.0465

Look up reverse-splicing fitness for the entries below, preserving their order.
1. C82A C169A U176A
2. A111C A120C A145G C150A C169U U176A
3. C150U C169A U176C
4. C82U A111C A120C A145U C150U U176C
5. C82U A111U A120U A145C U176A
6. C82G A111C A120C A145U C150A C169A U176A
7. A111U A120U A145U C150U C169A U176A

Result:
0.015
0.0207
0.0431
0.0144
0.00627
0.0163
0.00308
